Molecular target: Proprotein convertase subtilisin/kexin type 5 (Homo sapiens) (UniProt Q92824)
Sequence (Q92824 whole entry): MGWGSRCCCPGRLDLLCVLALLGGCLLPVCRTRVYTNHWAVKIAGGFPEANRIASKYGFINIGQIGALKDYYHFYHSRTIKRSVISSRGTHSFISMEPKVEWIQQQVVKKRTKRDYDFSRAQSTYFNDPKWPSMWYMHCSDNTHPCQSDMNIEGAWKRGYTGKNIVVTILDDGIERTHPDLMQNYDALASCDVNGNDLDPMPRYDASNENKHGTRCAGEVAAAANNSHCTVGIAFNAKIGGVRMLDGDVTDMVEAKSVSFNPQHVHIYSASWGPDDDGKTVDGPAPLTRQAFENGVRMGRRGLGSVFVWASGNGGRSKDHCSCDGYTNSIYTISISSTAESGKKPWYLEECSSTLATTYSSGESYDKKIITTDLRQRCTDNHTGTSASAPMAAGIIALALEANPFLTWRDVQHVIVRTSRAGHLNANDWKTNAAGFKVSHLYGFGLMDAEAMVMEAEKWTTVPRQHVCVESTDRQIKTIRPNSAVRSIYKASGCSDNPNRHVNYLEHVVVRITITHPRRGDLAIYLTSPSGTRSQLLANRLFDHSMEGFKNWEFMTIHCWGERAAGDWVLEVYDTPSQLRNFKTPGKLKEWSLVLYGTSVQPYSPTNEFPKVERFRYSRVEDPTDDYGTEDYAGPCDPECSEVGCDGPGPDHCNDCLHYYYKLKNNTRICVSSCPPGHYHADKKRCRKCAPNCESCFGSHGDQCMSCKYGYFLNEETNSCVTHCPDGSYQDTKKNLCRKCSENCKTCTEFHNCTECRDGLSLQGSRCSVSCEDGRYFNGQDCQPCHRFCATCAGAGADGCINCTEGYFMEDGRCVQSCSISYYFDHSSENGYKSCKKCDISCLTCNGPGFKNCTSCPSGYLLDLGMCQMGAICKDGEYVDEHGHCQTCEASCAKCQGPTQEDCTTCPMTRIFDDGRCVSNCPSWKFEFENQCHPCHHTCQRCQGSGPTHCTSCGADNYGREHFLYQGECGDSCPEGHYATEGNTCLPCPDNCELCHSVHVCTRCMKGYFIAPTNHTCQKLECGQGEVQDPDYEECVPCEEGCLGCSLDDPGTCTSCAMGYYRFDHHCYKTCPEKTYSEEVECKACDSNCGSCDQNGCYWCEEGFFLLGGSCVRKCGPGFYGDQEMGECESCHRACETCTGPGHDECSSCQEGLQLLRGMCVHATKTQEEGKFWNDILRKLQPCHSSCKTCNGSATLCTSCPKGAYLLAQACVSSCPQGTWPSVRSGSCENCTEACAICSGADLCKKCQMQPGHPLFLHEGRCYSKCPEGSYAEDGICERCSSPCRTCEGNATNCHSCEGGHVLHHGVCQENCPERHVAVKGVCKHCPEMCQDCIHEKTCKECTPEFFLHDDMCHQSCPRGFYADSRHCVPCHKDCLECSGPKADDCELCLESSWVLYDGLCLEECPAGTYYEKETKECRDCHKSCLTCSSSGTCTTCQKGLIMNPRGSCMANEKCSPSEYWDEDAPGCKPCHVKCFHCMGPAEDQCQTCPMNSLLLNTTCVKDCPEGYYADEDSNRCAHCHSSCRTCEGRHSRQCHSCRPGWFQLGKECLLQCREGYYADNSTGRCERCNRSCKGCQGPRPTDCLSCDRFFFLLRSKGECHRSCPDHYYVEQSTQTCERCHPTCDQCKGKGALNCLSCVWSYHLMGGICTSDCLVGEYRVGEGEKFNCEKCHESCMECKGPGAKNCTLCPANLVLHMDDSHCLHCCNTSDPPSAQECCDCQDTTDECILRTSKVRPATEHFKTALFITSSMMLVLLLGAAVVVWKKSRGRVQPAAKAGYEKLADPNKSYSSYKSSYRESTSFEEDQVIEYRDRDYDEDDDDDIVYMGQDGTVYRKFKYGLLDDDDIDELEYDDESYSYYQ
Assay: Inhibition of recombinant soluble human PC5 using pyroGlu-Arg-Thr-Lys-Arg-methyl-coumaryl-7-amide as substrate measured after 1 hr
Active and inactive are the calls of the source. The calls are words filed in the database; no cut-off is given here.

[
  {
    "Smiles data": "CC[C@H](C)[C@H](NC(=O)[C@H](CCCNC(=N)N)NC(=O)[C@H](C)NC(=O)[C@H](CCCNC(=N)N)NC(C)=O)C(=O)N[C@@H](CCCNC(=N)N)C(=O)N[C@@H](CCCCN)C(=O)N[C@@H](CCCCN)C(=O)N[C@@H](CCCNC(=N)N)C(=O)N[C@H](C(N)=O)[C@@H](C)O",
    "inhibition": "Active"
  },
  {
    "Smiles data": "CC(=O)N[C@@H](CCCNC(=N)N)C(=O)N[C@@H](C)C(=O)N[C@@H](CCCNC(=N)N)C(=O)N[C@@H](CC(N)=O)C(=O)N[C@@H](CCCNC(=N)N)C(=O)N[C@@H](CCCCN)C(=O)N[C@@H](CCCCN)C(=O)N[C@@H](CCCNC(=N)N)C(=O)N[C@H](C(N)=O)[C@@H](C)O",
    "inhibition": "Active"
  },
  {
    "Smiles data": "CC(=O)N[C@@H](CCCNC(=N)N)C(=O)N[C@@H](C)C(=O)N[C@@H](CCCNC(=N)N)C(=O)N[C@@H](CCCNC(=N)N)C(=O)N[C@@H](CCCNC(=N)N)C(=O)N[C@@H](CCCCN)C(=O)N[C@@H](CCCCN)C(=O)N[C@@H](CCCNC(=N)N)C(=O)N[C@H](C(N)=O)[C@@H](C)O",
    "inhibition": "Active"
  },
  {
    "Smiles data": "CC(=O)N[C@@H](CCCNC(=N)N)C(=O)N[C@@H](C)C(=O)N[C@@H](CCCNC(=N)N)C(=O)N[C@@H](Cc1ccccc1)C(=O)N[C@@H](CCCNC(=N)N)C(=O)N[C@@H](CCCCN)C(=O)N[C@@H](CCCCN)C(=O)N[C@@H](CCCNC(=N)N)C(=O)N[C@H](C(N)=O)[C@@H](C)O",
    "inhibition": "Active"
  }
]

* * *

Biological target: Furin (Homo sapiens, UniProt P09958)
Sequence (P09958 whole entry): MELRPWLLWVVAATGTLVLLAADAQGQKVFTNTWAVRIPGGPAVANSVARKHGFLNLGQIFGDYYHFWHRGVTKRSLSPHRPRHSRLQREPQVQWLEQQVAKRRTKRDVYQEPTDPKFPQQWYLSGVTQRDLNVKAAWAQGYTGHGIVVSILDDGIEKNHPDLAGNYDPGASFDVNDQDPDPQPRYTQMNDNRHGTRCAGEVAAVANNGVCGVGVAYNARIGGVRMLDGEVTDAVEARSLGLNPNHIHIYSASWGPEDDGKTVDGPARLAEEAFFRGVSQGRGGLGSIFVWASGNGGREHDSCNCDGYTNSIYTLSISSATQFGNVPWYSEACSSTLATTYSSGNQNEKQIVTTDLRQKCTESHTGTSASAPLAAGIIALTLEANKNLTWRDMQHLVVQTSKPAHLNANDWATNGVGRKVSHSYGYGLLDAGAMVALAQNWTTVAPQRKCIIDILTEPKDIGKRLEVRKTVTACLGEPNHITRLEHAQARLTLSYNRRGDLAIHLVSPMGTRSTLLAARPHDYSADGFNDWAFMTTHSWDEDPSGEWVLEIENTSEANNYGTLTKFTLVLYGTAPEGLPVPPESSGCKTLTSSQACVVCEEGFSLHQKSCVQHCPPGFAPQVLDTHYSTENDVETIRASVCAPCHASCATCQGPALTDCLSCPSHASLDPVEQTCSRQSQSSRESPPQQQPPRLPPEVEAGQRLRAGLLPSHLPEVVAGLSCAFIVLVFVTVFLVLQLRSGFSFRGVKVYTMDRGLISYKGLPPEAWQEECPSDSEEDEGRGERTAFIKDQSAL
Assay: Inhibition of recombinant soluble human furin using pyroGlu-Arg-Thr-Lys-Arg-methyl-coumaryl-7-amide as substrate measured after 1 hr

[
  {
    "Smiles data": "CC(=O)N[C@@H](CCCNC(=N)N)C(=O)N[C@@H](C)C(=O)N[C@@H](CCCNC(=N)N)C(=O)N[C@@H](CC(N)=O)C(=O)N[C@@H](CCCNC(=N)N)C(=O)N[C@@H](CCCCN)C(=O)N[C@@H](CCCCN)C(=O)N[C@@H](CCCNC(=N)N)C(=O)N[C@H](C(N)=O)[C@@H](C)O",
    "Assay target": "Furin (Homo sapiens, UniProt P09958)",
    "Ki": "0.018 µM"
  },
  {
    "Smiles data": "CC(=O)N[C@@H](CCCNC(=N)N)C(=O)N[C@@H](C)C(=O)N[C@@H](CCCNC(=N)N)C(=O)N[C@@H](CC(C)C)C(=O)N[C@@H](CCCNC(=N)N)C(=O)N[C@@H](CCCCN)C(=O)N[C@@H](CCCCN)C(=O)N[C@@H](CCCNC(=N)N)C(=O)N[C@H](C(N)=O)[C@@H](C)O",
    "Assay target": "Furin (Homo sapiens, UniProt P09958)",
    "Ki": "0.011 µM"
  },
  {
    "Smiles data": "CC(=O)N[C@@H](CCCNC(=N)N)C(=O)N[C@@H](C)C(=O)N[C@@H](CC(C)C)C(=O)N[C@@H](CCCNC(=N)N)C(=O)N[C@@H](CCCNC(=N)N)C(=O)N[C@@H](CCCCN)C(=O)N[C@@H](CCCCN)C(=O)N[C@@H](CCCNC(=N)N)C(=O)N[C@H](C(N)=O)[C@@H](C)O",
    "Assay target": "Furin (Homo sapiens, UniProt P09958)",
    "Ki": "0.014 µM"
  },
  {
    "Smiles data": "CC(=O)N[C@@H](CC(N)=O)C(=O)N[C@@H](C)C(=O)N[C@@H](CCCNC(=N)N)C(=O)N[C@@H](CCCNC(=N)N)C(=O)N[C@@H](CCCNC(=N)N)C(=O)N[C@@H](CCCCN)C(=O)N[C@@H](CCCCN)C(=O)N[C@@H](CCCNC(=N)N)C(=O)N[C@H](C(N)=O)[C@@H](C)O",
    "Assay target": "Furin (Homo sapiens, UniProt P09958)",
    "Ki": "0.012 µM"
  },
  {
    "Smiles data": "CC(=O)N[C@@H](CCCNC(=N)N)C(=O)N[C@@H](C)C(=O)N[C@H](C(=O)N[C@@H](CCCNC(=N)N)C(=O)N[C@@H](CCCNC(=N)N)C(=O)N[C@@H](CCCCN)C(=O)N[C@@H](CCCCN)C(=O)N[C@@H](CCCNC(=N)N)C(=O)N[C@H](C(N)=O)[C@@H](C)O)[C@@H](C)O",
    "Assay target": "Furin (Homo sapiens, UniProt P09958)",
    "Ki": "0.028 µM"
  },
  {
    "Smiles data": "CSCC[C@H](NC(=O)[C@H](CCCNC(=N)N)NC(=O)[C@H](C)NC(=O)[C@H](CCCNC(=N)N)NC(C)=O)C(=O)N[C@@H](CCCNC(=N)N)C(=O)N[C@@H](CCCCN)C(=O)N[C@@H](CCCCN)C(=O)N[C@@H](CCCNC(=N)N)C(=O)N[C@H](C(N)=O)[C@@H](C)O",
    "Assay target": "Furin (Homo sapiens, UniProt P09958)",
    "Ki": "0.016 µM"
  },
  {
    "Smiles data": "CC(=O)N[C@@H](CCCNC(=N)N)C(=O)N[C@@H](Cc1ccc(O)cc1)C(=O)N[C@@H](CCCNC(=N)N)C(=O)N[C@@H](CCCNC(=N)N)C(=O)N[C@@H](CCCNC(=N)N)C(=O)N[C@@H](CCCCN)C(=O)N[C@@H](CCCCN)C(=O)N[C@@H](CCCNC(=N)N)C(=O)N[C@H](C(N)=O)[C@@H](C)O",
    "Assay target": "Furin (Homo sapiens, UniProt P09958)",
    "Ki": "0.024 µM"
  }
]

Values from ChEMBL document CHEMBL4680371
